# test description: Metabolic stability of test compounds using human liver microsomes
# Assay type: in vitro ADME
# condition info: pooled human liver microsomes; in vitro t1/2; 0.5 mg/mL human liver microsomes, 1 μM test compound, 2 mM NADPH, pH 7.4, 37° C.; experiment run an additional three times; read-out: Avg t1/2 (min) ± SD
Where half-life at 1 µM equals or exceeds 40 min, the correct label is condition met; where it does not, the label is condition not met.

Decide: is the reported value of half-life at 1 µM for [2H]C([2H])(CC1CCCN1C)NS(=O)(=O)c1ccc(OCCC)c(-c2nc3c(CCC)nn(C([2H])([2H])[2H])c3c(=O)[nH]2)c1 (centres unmarked) [Compound 100] equal to or greater than 40 min?
condition met

Is the recorded value of half-life at 1 µM equal to or greater than 40 min for this molecule? [2H]C([2H])(CC1CCCN1C)NS(=O)(=O)c1ccc(OCCC)c(-c2nc3c(CCC)nn(C)c3c(=O)[nH]2)c1 (centres unmarked) [Compound 103]
condition not met

// inclusive: half-life at 1 µM at least 40 min? input: [2H]C([2H])(CC1CCCN1C)NS(=O)(=O)c1ccc(OC([2H])([2H])C([2H])([2H])C([2H])([2H])[2H])c(-c2nc3c(CC([2H])([2H])C([2H])([2H])[2H])nn(C([2H])([2H])[2H])c3c(=O)[nH]2)c1 (centres unmarked) [Compound 210]
condition met

// inclusive: half-life at 1 µM at least 40 min? input: CCCOc1ccc(S(=O)(=O)NCCC2CCCN2C)cc1-c1nc2c(CCC)nn(C)c2c(=O)[nH]1 (centres unmarked) [Udenafil, reference compound]
condition not met

Check if half-life at 1 µM >= 40 min (inclusive). Item: [2H]C([2H])([2H])n1nc(CCC)c2nc(-c3cc(S(=O)(=O)NCCC4CCCN4C)ccc3OCCC)[nH]c(=O)c21 (centres unmarked) [Compound 108]
condition not met
